This listing pairs compounds with measured TGI.
Test system: IGROV1 ovarian
experiment notes: NCI tumour cell line growth inhibition, 48 h

Some solved cases for reference:
> print(dat)
                                   compound  measured.endpoint  assay.value
1  N#CC1CCCC2SC(F)(F)C(F)(F)C12 (stereo not given)                TGI     > 100 µM
2  C=[CH][Sn]([CH]=C)([S]c1cccc2cccnc12)[S]c1cccc2cccnc12                TGI     0.726 µM
3  C[C@]12CCC(N3CCCC3)CC1=CC[C@@H]1[C@@H]2CC[C@]2(C)C(O)[C@H](n3ccnc3)C[C@@H]12 (stereo not given in full)                TGI     > 100 µM

**Q:** Look up TGI: CCC1=C(C(C)=O)[C@@H]2CCCCC(C(=O)OC)[C@@H]2C1=O (stereo not given in full)
**A:** > 100 µM

**Q:** Query (compound): CC(=O)Nc1ccc(-c2nnc(SCC(=O)Nc3ccc(Cl)cc3Cl)o2)cc1 ; field requested: TGI
**A:** > 100 µM

**Q:** Item under review: CC1=CC2C(=O)N(c3ccccc3)C(=O)C2CC1n1[nH]c(=O)n(Cc2ccccc2)c1=O (stereo not given) . Reported TGI?
**A:** > 100 µM

**Q:** Endpoint output: TGI of CCC12C=CCN3CCC4(c5cc(C6(C(=O)OC)CCCCCc7c6[nH]c6ccccc76)c(OC)cc5N(C)C4C(O)(C(=O)OC)C1OC(C)=O)C32 (stereo not given) . Value?
**A:** 5.23 µM

**Q:** Could you tell me which TGI is on file for COc1ccc(C(=O)/C=C/c2ccc(Oc3cc(C(=O)/C=C/c4ccc(O)cc4)c(O)cc3OC)cc2)c(O)c1 ?
**A:** 6.13 µM
